- System: SU-DHL-6 (B-Cell Non-Hodgkin's Lymphoma)
- assayProcedure: combination Emax (second highest fraction inhibited in the dose matrix, 72 h); higher = more inhibition; extreme values may be limits of the assay
Listing of entries alongside the reported combination Emax.

Known results for compounds:
compound	combination Emax
COc1cccc(OCCCN)c1-c1cc(Nc2cnc(C#N)cn2)n[nH]1 [Prexasertib] + O=C(c1cc(Cc2n[nH]c(=O)c3ccccc23)ccc1F)N1CCN(C(=O)C2CC2)CC1 [Olaparib] (first compound max 1 µM, 7x7, partner max 10 µM)	0.653
COc1nnc2ccc(N3CCC(c4ccc(OCCN5CCN(C)C(=O)[C@H]5C)cc4)CC3)nn12 [AZD5153] + Cn1cnc2c(F)c(Nc3ccc(Br)cc3Cl)c(C(=O)NOCCO)cc21 [Selumetinib] (first compound max 1 µM, 7x7, partner max 10 µM)	0.913

// next item, combination Emax requested
Query: combination Emax; subject: CN(CCO)CC[C@H](CSc1ccccc1)Nc1ccc(S(=O)(=O)NC(=O)c2ccc(N3CCC([C@@H](O)c4ccccc4-c4ccc(Cl)cc4)CC3)cc2)cc1S(=O)(=O)C(F)(F)F [AZD4320] + CS(=O)(=O)CCNCc1ccc(-c2ccc3ncnc(Nc4ccc(OCc5cccc(F)c5)c(Cl)c4)c3c2)o1 [Lapatinib] (first compound max 1 µM, 7x7, partner max 10 µM)
0.997

All figures here come from the supplement of paper PMC11061612.
